B1: VH:VL chains; a variant is named by its letters at X, in order (parent)
chain 1: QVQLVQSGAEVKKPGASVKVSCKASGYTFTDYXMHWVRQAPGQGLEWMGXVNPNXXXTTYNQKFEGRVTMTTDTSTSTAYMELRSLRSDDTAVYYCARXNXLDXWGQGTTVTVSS
chain 2: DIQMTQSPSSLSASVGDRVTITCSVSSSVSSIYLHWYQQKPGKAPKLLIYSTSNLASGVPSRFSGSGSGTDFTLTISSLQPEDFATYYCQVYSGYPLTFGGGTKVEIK

Variants of: B1
assayName: yeast display scFab, FACS + sequencing

variantIdentifier | non-specific binding call
YRAKGALA | binds
YRGRGVVY | binds
YARADDGS | no binding
AKRGSAAV | binds
DAEATDVA | no binding
YTEGDDGV | no binding
DGARNSGV | no binding
FRGRGDVV | binds
AGEGNSWA | no binding
VKGASDGA | no binding
VTGANDWV | no binding
